Data origin: patent US20260297129A1

# protocol: Solubility of peptide compounds in buffer formulations (Table 5)
# Format: physicochemical
# conditionsUsed: Buffer pH 1.1 (head; method: 50 mM HCl pH 1.2), 2 h agitation, target 1 mg/ml; read-out: Solubility, Buffer pH 1.1
Numbered stars: 1 amine (or outer) side, 2 acyl side, 3 side chain; on linkers, the order of the positions; unused ones are H or OH. Bridge positions count the residues as written; N and C are the ends. Square brackets hold non-standard residues; d marks the D form. Peptide text beside a SMILES is read from it. * marks the point of attachment. Lys(Me,(CH2)4NMe(CH2)4CO) = CN(CCCCC(=O)[*:3])CCCCN(C)CCCC[C@H](N[*:1])C(=O)[*:2]; Trp(7-Me) = Cc1cccc2c(C[C@H](N)C(=O)O)c[nH]c12; Trp(1-Me) = Cn1cc(C[C@H](N)C(=O)O)c2ccccc21; NH(2-(3-pyridyl)ethyl) = c1cncc(CCN*)c1; Sebacoyl = O=C(CCCCCCCCC(=O)[*:2])[*:1]; αMeLys(Me2) = CN(C)CCCC[C@](C)(N)C(=O)O; 2Nal = N[C@@H](Cc1ccc2ccccc2c1)C(=O)O; Suberoyl = O=C(CCCCCCC(=O)[*:2])[*:1]; X4 = O=C(CCCCCCCCCCCCCCCN[*:1])[*:2]; 3Pal = N[C@@H](Cc1cccnc1)C(=O)O; Lys(Me) = CNCCCC[C@H](N)C(=O)O; 12Ado = NCCCCCCCCCCCC(=O)O; Aun = NCCCCCCCCCCC(=O)O; Thp = NC1(C(=O)O)CCOCC1; Me2NCH2CH2 = CN(C)CC*; Aib = CC(C)(N)C(=O)O; Sar = CNCC(=O)O
Let's look at some compounds and their measured solubility at 2 h.

Examples with answers:
compound: CN(C)CCCC[C@]1(C)NC(=O)[C@H](Cc2ccc3ccccc3c2)NC(=O)[C@H](Cc2ccc(OCCN(C)C)cc2)NC(=O)C2(CCOCC2)NC(=O)[C@H](CCC(N)=O)NC(=O)[C@H](Cc2cn(C)c3ccccc23)NC(=O)CCCCN(C)CCCCN(C)CCCC[C@@H](C(=O)N[C@@H](CO)C(=O)N[C@@H](Cc2cccnc2)C(=O)N(C)CC(N)=O)NC1=O [compound 45] ([Trp(1-Me)]Q[Thp]Y(Me2NCH2CH2)[2Nal][αMeLys(Me2)][Lys(Me,(CH2)4NMe(CH2)4CO)]S[3Pal][Sar]-NH2; lactam N-7)
observedValue: ≥ 1060 µg/mL
--
compound: Cc1cccc2c(C[C@@H]3NC(=O)CCCCCCCCCCNC(=O)CC[C@@H](C(=O)N[C@@H](CC(N)=O)C(=O)N[C@@H](Cc4cccnc4)C(=O)N(C)CC(N)=O)NC(=O)C(C)(C)NC(=O)[C@H](Cc4ccc5ccccc5c4)NC(=O)[C@H](Cc4ccc(OCCN(C)C)cc4)NC(=O)C4(CCOCC4)NC(=O)[C@H](CC(C)C)NC3=O)c[nH]c12 [compound 7] ([Aun][Trp(7-Me)]L[Thp]Y(Me2NCH2CH2)[2Nal][Aib]EN[3Pal][Sar]-NH2; lactam N-8)
observedValue: 20 µg/mL
--
compound: Cc1cccc2c(C[C@@H]3NC(=O)CCCCCCCCCCCCCCCNC(=O)CC[C@@H](C(=O)N[C@@H](CC(N)=O)C(=O)N[C@@H](Cc4cccnc4)C(=O)N(C)CC(N)=O)NC(=O)C(C)(C)NC(=O)[C@H](Cc4ccc5ccccc5c4)NC(=O)[C@H](Cc4ccc(OCCN(C)C)cc4)NC(=O)C4(CCOCC4)NC(=O)[C@H](CCC(N)=O)NC3=O)c[nH]c12 [compound 3] ([X4][Trp(7-Me)]Q[Thp]Y(Me2NCH2CH2)[2Nal][Aib]EN[3Pal][Sar]-NH2; lactam N-8)
observedValue: ≥ 990 µg/mL
--
compound: CC(=O)NCCCC[C@@H]1NC(=O)[C@H](Cc2c[nH]c3c(C)cccc23)NC(=O)CCCCCCCCCCNC(=O)CC[C@@H](C(=O)N[C@@H](CC(N)=O)C(=O)N[C@@H](Cc2cccnc2)C(=O)N(C)CC(N)=O)NC(=O)C2(CCOCC2)NC(=O)[C@H](Cc2ccc3ccccc3c2)NC(=O)[C@H](Cc2ccc(OCCN(C)C)cc2)NC(=O)C2(CCOCC2)NC1=O [compound 50] ([Aun][Trp(7-Me)]K(Ac)[Thp]Y(Me2NCH2CH2)[2Nal][Thp]EN[3Pal][Sar]-NH2; lactam N-8)
observedValue: ≥ 1180 µg/mL
--
compound: Cc1cccc2c(C[C@@H]3NC(=O)CCCCCCCCCCCNC(=O)CC[C@@H](C(=O)N[C@@H](CC(N)=O)C(=O)N[C@@H](Cc4cccnc4)C(=O)N(C)CC(N)=O)NC(=O)C(C)(C)NC(=O)[C@H](Cc4ccc5ccccc5c4)NC(=O)[C@H](Cc4ccc(OCCN(C)C)cc4)NC(=O)C4(CCOCC4)NC(=O)[C@H](CCC(N)=O)NC3=O)c[nH]c12 [compound 2] ([12Ado][Trp(7-Me)]Q[Thp]Y(Me2NCH2CH2)[2Nal][Aib]EN[3Pal][Sar]-NH2; lactam N-8)
observedValue: ≥ 1140 µg/mL
--
compound: Cc1cccc2c(C[C@@H]3NC(=O)CCCCCCCCC(=O)N(C)CCCC[C@@H](C(=O)NCC(=O)NCCc4cccnc4)NC(=O)C(C)(C)NC(=O)[C@H](Cc4ccc5ccccc5c4)NC(=O)[C@H](Cc4ccc(OCCN(C)C)cc4)NC(=O)C4(CCOCC4)NC(=O)[C@H](CC(C)C)NC3=O)c[nH]c12 [compound 17] ([Trp(7-Me)]L[Thp]Y(Me2NCH2CH2)[2Nal][Aib][Lys(Me)]G-{NH(2-(3-pyridyl)ethyl)}; linker N-7 via Sebacoyl)
observedValue: ≥ 1410 µg/mL
--
compound: Cc1cccc2c(C[C@@H]3NC(=O)CCCCCCC(=O)NCCCC[C@@H](C(=O)N[C@@H](CC(N)=O)C(=O)N[C@@H](Cc4cccnc4)C(=O)N(C)CC(N)=O)NC(=O)C(C)(C)NC(=O)[C@H](Cc4ccc5ccccc5c4)NC(=O)[C@H](Cc4ccc(OCCN(C)C)cc4)NC(=O)C4(CCOCC4)NC(=O)[C@H](CCC(N)=O)NC3=O)c[nH]c12 [compound 12] ([Trp(7-Me)]Q[Thp]Y(Me2NCH2CH2)[2Nal][Aib]KN[3Pal][Sar]-NH2; linker N-7 via Suberoyl)
observedValue: ≥ 1050 µg/mL
--
compound: CC(=O)NCCCC[C@@H]1NC(=O)[C@H](Cc2c[nH]c3c(C)cccc23)NC(=O)CCCCN(C)CCCCN(C)CCCC[C@@H](C(=O)N[C@@H](CO)C(=O)N[C@@H](Cc2cccnc2)C(=O)N(C)CC(N)=O)NC(=O)C(C)(C)NC(=O)[C@H](Cc2ccc3ccccc3c2)NC(=O)[C@H](Cc2ccc(OCCN(C)C)cc2)NC(=O)C2(CCOCC2)NC1=O [compound 39] ([Trp(7-Me)]K(Ac)[Thp]Y(Me2NCH2CH2)[2Nal][Aib][Lys(Me,(CH2)4NMe(CH2)4CO)]S[3Pal][Sar]-NH2; lactam N-7)
observedValue: ≥ 1000 µg/mL

Next:
Which value of solubility at 2 h has been reported for CC(=O)NCCCC[C@@H]1NC(=O)[C@H](Cc2c[nH]c3c(C)cccc23)NC(=O)CCCCN(C)CCCCN(C)CCCC[C@@H](C(=O)N[C@@H](CO)C(=O)N[C@@H](Cc2cccnc2)C(=O)N(C)CC(N)=O)NC(=O)[C@](C)(CCCCN(C)C)NC(=O)[C@H](Cc2ccc3ccccc3c2)NC(=O)[C@H](Cc2ccc(OCCN(C)C)cc2)NC(=O)C2(CCOCC2)NC1=O [compound 44] ([Trp(7-Me)]K(Ac)[Thp]Y(Me2NCH2CH2)[2Nal][αMeLys(Me2)][Lys(Me,(CH2)4NMe(CH2)4CO)]S[3Pal][Sar]-NH2; lactam N-7) in the records?
≥ 1360 µg/mL
